Test system: NCI-H23 lung
Assay: NCI tumour cell line growth inhibition, 48 h
The entries below are paired with their reported TGI.

CC(=O)OC[C@H]1On2nnnc2[C@H](OC(C)=O)[C@@H](OC(C)=O)[C@@H]1OC(C)=O : > 100 µM
CCCCCC(=O)Nc1nc2nc[nH]c2c(=O)[nH]1 : > 100 µM
O=C1NC(N2CCOCC2)=N/C1=C\c1ccc(O)cc1 : > 100 µM
C[C@H](C1CC2(C)OC2(C)C(=O)O1)[C@H]1CC[C@H]2[C@@H]3[C@@H]4O[C@@H]4[C@@]4(O)CC=CC(=O)[C@]4(C)[C@H]3CC[C@]12C (some centres undefined) : > 50 µM
O=c1[nH]c(=O)n(C2OC(CO)C(O)C2O)cc1OCCCc1ccccc1 (centres undefined) : > 100 µM

// query I am curious: what TGI value has been reported for CC(C)c1cc(C(C)C)c(S(=O)(=O)N=[N+]=[N-])c(C(C)C)c1 ?
// result > 100 µM

// query Could you tell me which TGI is on file for COc1cc(Oc2nc3cc(F)c(F)cc3nc2-c2ccccc2)cc(OC)c1OC ?
// result > 100 µM

// query Any idea what TGI was measured for CCOC(=O)C(Cc1ccc(N(CCCl)CCCl)cc1)NC(=O)C(Cc1ccccc1)NC=O (centres undefined) ?
// result 0.399 µM

// query What TGI value was documented for this molecule, COc1ccccc1S(=O)(=O)Nc1ccc2c3c(cc(CCC(=O)NCCCCNc4cccc5c4C(=O)N(C4CCC(=O)NC4=O)C5=O)cc13)C(=O)N2C (centres undefined) ?
// result > 100 µM

// query # query: TGI of entry O=[N+]([O-])c1ccc(Cl)c(CNc2ncnc3c2ncn3C2CCCCO2)c1 (centres undefined)
// result > 100 µM

// query Give its TGI value. Item: COc1cccc2cc(N(C)c3nc(C)nc4c3CCC4)ccc12
// result 18 µM

// query Using the record for O=C(O)CCNS(=O)(=O)c1ccc2ccccc2c1 , report its TGI.
// result > 100 µM

// query Requested field: TGI. Item: O=C(O)c1cccc(NC(C(=O)c2ccccc2)c2ccccc2)c1 (centres undefined)
// result > 100 µM

// query Which TGI value is on record for Oc1ccc(-c2nc3ccccc3s2)cc1 ?
// result 79.1 µM

====

This listing pairs compounds with measured GI50.
Test system: UACC-257 melanoma
Experiment: NCI tumour cell line growth inhibition, 48 h

# annotated cases, reported GI50 shown
COc1ccccc1S(=O)(=O)Nc1ccc2c3c(cc(CCC(=O)NCCCCNc4cccc5c4C(=O)N(C4CCC(=O)NC4=O)C5=O)cc13)C(=O)N2C (stereo not drawn) : > 100 µM
C#Cc1cccc(Nc2nc(Cl)nc3cc(NC(=O)CCl)ccc23)c1 : 2.36 µM
CCCCCC(O)C(O)CCC[C@H](O)[C@H]1CC[C@H]([C@H]2CC[C@H]([C@H](O)CCCCCCCCCCCCC3=C[C@H](C)OC3=O)O2)O1 (stereo partly drawn) : 1.29 µM
C=C1C(O)C2CC(C)(CO)C(=O)C2=C(CC(C)C)C12CC2 (stereo not drawn) : 52.1 µM
Cc1ccc(N=C[N-]c2ccc(C)cc2)cc1.Cc1ccc(N=C[N-]c2ccc(C)cc2)cc1.O=C([O-])C(F)(F)F.O=C([O-])C(F)(F)F.[OH3+].[OH3+].[Rh+2].[Rh+2] : 64.7 µM

// query Form field: GI50 recorded for CCCCCCSSC(=S)N(CC)CC with UACC-257 melanoma (enter value)
// result 48.3 µM

// query Lookup: GI50 / UACC-257 melanoma / NC(=O)c1ccc(Oc2nccc(-c3c(-c4ccc(F)cc4)ncn3C3CCNCC3)n2)cc1
// result > 25 µM

// query Write down the reported GI50 of CC(=O)N1CCN(CCNC(=O)n2cc(-c3ccncc3)c(-c3cc(O)cc(Cl)c3)n2)CC1 , test system: UACC-257 melanoma.
// result 1.85 µM

====

Test system: SF-268 CNS
Assay: NCI tumour cell line growth inhibition, 48 h
Items are presented alongside their recorded GI50.

Please review the entries below; each comes with its answer.
Cc1c(C#N)cccc1[C@@H](C)Nc1nnc(C)c2cnc(N3CCOCC3)cc12 : 14.1 µM
CCCCCC(O)C(O)CCC[C@H](O)[C@H]1CC[C@H]([C@H]2CC[C@H]([C@H](O)CCCCCCCCCCCCC3=C[C@H](C)OC3=O)O2)O1 (stereo not given in full) : 12.4 µM
CNCCCNc1nc2ccccc2c2c(=O)c3cc(OC)ccc3sc12 : 1.71 µM
COc1ccc(C(=O)c2cc(C)c(OC)c(C)c2)c(OC)c1NC(C)=O : 1.82 µM

// query Entry under review: O=C(/C=C/C=C/c1ccccc1)c1ccco1 . Reported GI50?
// result 18.2 µM

====

Tested on: SF-295 CNS
Experiment: NCI tumour cell line growth inhibition, 48 h
observation.type: TGI (µM)
Value expressed in µM; do not type the unit.

CS(=O)(=O)c1ccc(Nc2nc(N[C@H]3CCCC[C@H]3N)nc3cc[nH]c(=O)c23)cc1 : 5.84

Here is the next item to consider.
// query Data request, read-out TGI, for CCCCCCCC1(c2ccc(N)cc2)CCC(=O)NC1=O (centres undefined)
// result 88.1

====

Tested on: HOP-92 NSCLC
Assay: NCI tumour cell line growth inhibition, 48 h
observation.type: log10 TGI (log10 of the value in µM)
Values reflect log10 of reported TGI (µM).

CC1=C(SC#N)S(=O)(=O)N(c2ccccc2)C(C)=C1SC#N : 1.95
C#Cc1cccc(Nc2nc(Cl)nc3cc(NC(=O)CCl)ccc23)c1 : 0.46
CN1Cc2ccccc2/C=C\c2ccccc21 : 1.99
Cc1nc(-c2cc3ccccc3oc2=O)cs1 : 1.73
Cc1ccc(-c2nc(/C=N/Nc3cc(C)nc4ccc(Cl)cc34)c(C)o2)cc1 : 0.47

// query Report log10 TGI for CCCCCCCCCCCCC(O)c1ccco1 (stereo not given) tested on HOP-92 NSCLC.
// result 1.51

// query Lab note: need log10 TGI for CCCc1cc(=O)n2c(C(=O)Nc3ccc(F)cc3)c(C(=O)Nc3ccc(F)cc3)sc2n1 on HOP-92 NSCLC, anyone have it?
// result 1.27

====

System: HL-60(TB) leukemia
Test: NCI tumour cell line growth inhibition, 48 h
observation.type: TGI

Sample records with TGI:
C#C[C@@]1(O)[C@@H](CO)O[C@@H](n2cc(I)c3c(N)ncnc32)[C@@H]1O : 0.262 µM
CC1(C)Oc2ccc3c(=O)cc(-c4ccccc4)oc3c2C1C(=O)O (configuration not stated) : > 100 µM
Cc1ccc([N+](=O)[O-])c2c(NCCNC(=O)c3cc(C(=O)NCCNc4ccnc5c(C)ccc([N+](=O)[O-])c45)n(C)n3)ccnc12 : > 76.1 µM

// query For the record CCOC(=O)/C(=C/c1cccc(Cl)c1)N(CC)CC , what value of TGI is listed for HL-60(TB) leukemia?
// result > 100 µM

// query What TGI appears in the records for this compound with HL-60(TB) leukemia? N#Cc1ccccc1NC(=O)C(=O)C1NC(=S)NC1=O (configuration not stated)
// result > 100 µM

// query Given the entry CC1(C)O[C@@H](C[C@]2(C#N)C[C@H](CCl)OC(C)(C)O2)C[C@@H](C#N)O1 , what TGI was observed with HL-60(TB) leukemia?
// result > 100 µM

// query What is its TGI for HL-60(TB) leukemia? Entry: COc1cc(C2C3=C(COC3=O)N(CCO)c3cc4c(cc32)OCCO4)cc(OC)c1OC (configuration not stated)
// result 1.28 µM

====

Test system: SNB-19 CNS
Assay: NCI tumour cell line growth inhibition, 48 h; in the data active = GI50 below about 0.43 µM; inactive = the rest
Would you mind answering with one of these outcomes? YES = active, NO = inactive

Known results for molecules:
COc1cc(C2C3=C(COC3=O)N(CCO)c3cc4c(cc32)OCCO4)cc(OC)c1OC (centres undefined) : NO
CCCc1cc(=O)n2c(C(=O)Nc3ccc(F)cc3)c(C(=O)Nc3ccc(F)cc3)sc2n1 : NO

Consider the record given below.
// query Kindly provide the recorded test outcome for the following molecule: CN=C1C=CC(=C(c2ccc(N(C)C)cc2)c2ccc(N(C)C)cc2)C=C1
// result YES

====

Tested on: MOLT-4 leukemia
Assay: NCI tumour cell line growth inhibition, 48 h
# Lookup of reported TGI keyed by entry
Please state the figure in µM; there is no need to write the unit.

CCOC(=O)C(Cc1ccc(N(CCCl)CCCl)cc1)NC(=O)C(Cc1ccccc1)NC=O (centres undefined) : 0.161

Please turn your attention to the following entry.
// query Field request: TGI | item: CC1CCC2(OC1)OC1C(O)C3C4CCC5CC(OC6OC(CO)C(OC7OC(CO)C(O)C(OC8OCC(O)C(O)C8O)C7OC7OC(CO)C(O)C(OC8OC(CO)C(O)C(O)C8O)C7O)C(O)C6O)C(O)CC5(C)C4CCC3(C)C1C2C (centres undefined)
// result 15.1

Hey, just so you know, these numbers are from PubChem BioAssay (NCI).
